Tested on: HOP-92 NSCLC
TEST: NCI tumour cell line growth inhibition, 48 h; in the data active = GI50 below about 0.43 µM; inactive = the rest
Hi! Could you answer with just one of these? class 1 for active, class 0 for inactive

The examples below pair each entry with its known result.
# COMPOUND, LABEL
rows = [
    ("COc1cc(Cn2ccc3c2-c2oncc2CC3)cc(OC)c1", "class 0"),
    ("Nc1c(C(=O)c2cccc(CCC3(O)CCCC3)c2)cnn1-c1ccc(F)cc1", "class 0"),
    ("CC[C@H](C)[C@H](NC(=O)Nc1ccccc1)C(=O)N(C)[C@H](C[C@@H](OC(C)=O)c1nc(C(=O)N[C@@H](Cc2ccccc2)C[C@H](C)C(=O)OC)cs1)C(C)C", "class 0"),
    ("Cc1ccc2c(Nc3cccc(Cl)c3F)ncc(NC(=O)c3csc4c(N)ncnc34)c2c1", "class 1"),
    ("ICCC(c1ccccc1)(c1ccccc1)c1ccccc1", "class 0"),
]

*Q* Identify the outcome logged in this assay for the compound shown: Nc1ncnc2c(C3OC(CO)C(O)C3O)[nH]nc12 (stereo not drawn)
*A* class 1

*Q* Identify the outcome logged in this assay for the compound shown: `Cc1ncc(C(=O)Nc2ccc(CN3CCN(C)CC3)c(C(F)(F)F)c2)cc1C#Cc1cnc(N)c2ncccc12`
*A* class 1

*Q* Identify the outcome logged in this assay for the compound shown: `Fc1ccc(-c2nnc3sc(COc4ccccc4Cl)nn23)cc1Cl`
*A* class 0
